- Procedure Details: Half life in human
- Type: ADME, organism-based
- Condition Notes: in vivo
Observation Type: half-life (h)

[
  {
    "Compound": "C[C@H]1[C@H](OC(=O)CCC(=O)O)O[C@@H]2O[C@@]3(C)CC[C@H]4[C@H](C)CC[C@@H]1[C@@]24OO3 [ARTESUNATE]",
    "Readout Unit": "h",
    "Reported Result": 1
  },
  {
    "Compound": "C[C@H]1[C@@H](O)O[C@@H]2O[C@@]3(C)CC[C@H]4[C@H](C)CC[C@@H]1[C@@]24OO3 [ARTENIMOL]",
    "Readout Unit": "h",
    "Reported Result": 1
  },
  {
    "Compound": "Clc1ccc2c(N3CCN(CCCN4CCN(c5ccnc6cc(Cl)ccc56)CC4)CC3)ccnc2c1 [PIPERAQUINE]",
    "Readout Unit": "h",
    "Reported Result": 192
  },
  {
    "Compound": "O[C@@H](c1cc(C(F)(F)F)nc2c(C(F)(F)F)cccc12)[C@H]1CCCCN1 (relative stereo) [(S,R)-MEFLOQUINE]",
    "Readout Unit": "h",
    "Reported Result": 336
  },
  {
    "Compound": "CO[C@H]1O[C@@H]2O[C@@]3(C)CC[C@H]4[C@H](C)CC[C@@H]([C@H]1C)[C@@]24OO3",
    "Readout Unit": "h",
    "Reported Result": 1
  }
]
